protocol-summary: Toxicity, mice, oral (lethality)
experimental-context: mouse, in vivo, 3 160 mg/kg p.o.
quantity-name: mortality
Respond with a number, then the unit of measure.

Give its mortality value. Item: `O=c1c2ccccc2sn1-c1ccc(Cl)cc1`
0%

---

protocol-summary: Toxicity, mice, oral (lethality)
experimental-context: mouse, in vivo, 38 mg/kg p.o.
quantity-name: mortality (%)
All answers are understood in %, so give the number only.

Give its mortality value. Item: COc1ccc2c(c1)c(CC(=O)O)c(C)n2C(=O)c1ccc(Cl)cc1 [Indometacin, reference compound]
50
